# System: Molm13
# method.description: cell viability relative to DMSO control (bortezomib = 0%); higher = less growth inhibition
# details: 10 nM; 72 h
# key: entry, value: cell viability
measurement.type: cell viability (%)

# molecule, measurement.type, observed.measurement
records = [
    ("Cc1ccc(-n2nc(C(C)(C)C)cc2NC(=O)Nc2ccc(OCCN3CCOCC3)c3ccccc23)cc1", "cell viability", 95.9),
    ("N#CC(=Cc1ccc2[nH]ccc2c1)C(N)=C(C#N)C#N", "cell viability", 104),
    ("CCc1cc2c(cc1N1CCC(N3CCOCC3)CC1)C(C)(C)c1[nH]c3cc(C#N)ccc3c1C2=O", "cell viability", 102),
    ("CN(C)C/C=C/C(=O)Nc1cc2c(Nc3ccc(F)c(Cl)c3)ncnc2cc1O[C@H]1CCOC1 [Afatinib (BIBW2992) Dimaleate]", "cell viability", 108),
    ("Cc1oncc1C(=O)Nc1ccc(C(F)(F)F)cc1 [Leflunomide]", "cell viability", 91.3),
    ("COc1ccc(-c2cnc3c(-c4cccc5ncccc45)cnn3c2)cc1", "cell viability", 103),
    ("COc1ccc2c(c1)c(C1=C(c3c[nH]c4ccccc34)C(=O)NC1=O)cn2CCCN(C)C", "cell viability", 85.4),
    ("Cc1cccc(/C=N/Nc2cc(N3CCOCC3)n3nc(-c4ccncc4)cc3n2)c1", "cell viability", 95.5),
    ("OCCn1cc(-c2cnc3nnn(Cc4ccc5ncccc5c4)c3n2)cn1", "cell viability", 120),
    ("CC(C)c1ccc2c(c1)CC[C@H]1[C@](C)(CN)CCC[C@]21C", "cell viability", 96.7),
    ("Oc1cccc(-c2nc(N3CCOCC3)c3oc4ncccc4c3n2)c1", "cell viability", 94.1),
    ("C=C(C)[C@@H]1CC[C@]2(C)CC[C@]3(C)[C@H](CC[C@@H]4[C@@]5(C)CC[C@H](O)C(C)(C)[C@@H]5CC[C@]43C)[C@@H]12", "cell viability", 101),
    ("Nc1nc2cc(-c3ccc4ncc(C(=O)N5CCOCC5)n4c3)ccc2o1", "cell viability", 98.5),
    ("C[C@]1(O)C[C@@H](c2nc(-c3ccc4ccc(-c5ccccc5)nc4c3)c3c(N)nccn32)C1", "cell viability", 118),
    ("CC[C@H](Nc1ncnc2[nH]cnc12)c1nc2cccc(F)c2c(=O)n1-c1ccccc1", "cell viability", 93.7),
    ("CNc1nc(Nc2cn(C(C)(C)C#N)nc2C)ncc1C(F)(F)F", "cell viability", 109),
    ("Clc1cnccn1", "cell viability", 113),
    ("CCn1c(=O)c(-c2ccc(-c3cncs3)cc2Cl)cc2cnc(Nc3ccc(N4CCN(C)CC4)cc3)nc21", "cell viability", 106),
    ("Cn1cc(C2=C(c3cn(CCCN)c4ccccc34)C(=O)NC2=O)c2ccccc21 [Bisindolylmaleimide VIII (acetate)]", "cell viability", 111),
    ("CCN1/C(=C/C(C)=O)Sc2ccc(OC)cc21", "cell viability", 106),
    ("Cn1cc(-c2cnn3c(N)c(Br)c([C@@H]4CCCNC4)nc23)cn1", "cell viability", 92.5),
]

====

# Test system: Mv4-11
# method.description: cell viability relative to DMSO control (bortezomib = 0%); higher = less growth inhibition
# details: 10 nM; 72 h

# compound, units.symbol, cell viability
records = [
    ("CNC(=O)CN1CCC(Oc2cc3c(Nc4cccc(Cl)c4F)ncnc3cc2OC)CC1 [AZD8931 (Sapitinib)]", "%", 116),
    ("CCCCOc1c(C(=O)c2c(F)cc(C)cc2F)c[nH]c2nncc1-2", "%", 107),
    ("CCCCCCCCCC(=O)CC(O)S(=O)(=O)O (stereo not given) [Sodium houttuyfonate]", "%", 106),
    ("Cc1cc(O)c2c(c1)C(=O)c1cc(O)cc(O)c1C2=O", "%", 99.1),
    ("CN1CCN(Cc2ccc(-c3cnc4[nH]cc(-c5ccc6[nH]ccc6c5)c4c3)cc2)CC1", "%", 121),
    ("C[C@H](NC(=O)/C(C#N)=C/c1cccc(Br)n1)c1ccccc1", "%", 99.3),
    ("C[C@H](Nc1ncnc2nc[nH]c12)c1cc2cccc(Cl)c2c(=O)n1-c1ccccc1", "%", 111),
    ("Cc1ccc(F)c(NC(=O)Nc2ccc(-c3cccc4[nH]nc(N)c34)cc2)c1 [Linifanib (ABT-869)]", "%", 73.9),
    ("COc1cc(OC)c(/C=C/S(=O)(=O)Cc2ccc(OC)c(OP(=O)(O)O)c2)c(OC)c1", "%", 106),
    ("COc1cc2c(Oc3ccc4[nH]c(C)cc4c3F)ncnc2cc1OCCCN1CCCC1", "%", 107),
]
